# target under test: MEX3D (UniProt Q86XN8)
# Sequence: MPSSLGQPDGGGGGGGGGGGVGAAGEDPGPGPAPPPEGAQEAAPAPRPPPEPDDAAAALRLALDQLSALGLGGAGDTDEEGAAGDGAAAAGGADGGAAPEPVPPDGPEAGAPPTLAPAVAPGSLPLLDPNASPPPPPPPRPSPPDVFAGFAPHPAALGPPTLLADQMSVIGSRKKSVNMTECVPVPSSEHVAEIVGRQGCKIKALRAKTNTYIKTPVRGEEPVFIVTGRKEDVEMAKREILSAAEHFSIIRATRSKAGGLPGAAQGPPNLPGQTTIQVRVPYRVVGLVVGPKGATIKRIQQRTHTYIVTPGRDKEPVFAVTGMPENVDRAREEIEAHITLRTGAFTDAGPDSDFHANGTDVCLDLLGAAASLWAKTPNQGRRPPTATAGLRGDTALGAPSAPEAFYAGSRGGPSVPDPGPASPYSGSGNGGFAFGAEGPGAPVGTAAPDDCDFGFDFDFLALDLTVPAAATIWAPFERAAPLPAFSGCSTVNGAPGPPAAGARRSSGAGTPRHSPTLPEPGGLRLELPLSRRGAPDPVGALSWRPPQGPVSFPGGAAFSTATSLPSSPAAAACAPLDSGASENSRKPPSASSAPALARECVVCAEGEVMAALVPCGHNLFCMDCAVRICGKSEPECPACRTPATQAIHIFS
# method: EC50 of free RNA motif oligo competing protein binding to immobilised probe
experimental endpoint: pEC50
Please report pEC50 as the negative decimal logarithm of the molar concentration, giving only the number.

Ask: Look up pEC50 for this sequence: UAUUUAU
Result: 6.15

* * *

# target under test: MRPL43 (UniProt Q8N983)
# method: EC50 of free RNA motif oligo competing protein binding to immobilised probe
experimental endpoint: pEC50
Please report pEC50 as the negative decimal logarithm of the molar concentration, giving only the number.

Ask: Look up pEC50 for this sequence: CUGUCCU
Result: 6.98

* * *

# target under test: ZCRB1 (UniProt Q8TBF4)
# Sequence: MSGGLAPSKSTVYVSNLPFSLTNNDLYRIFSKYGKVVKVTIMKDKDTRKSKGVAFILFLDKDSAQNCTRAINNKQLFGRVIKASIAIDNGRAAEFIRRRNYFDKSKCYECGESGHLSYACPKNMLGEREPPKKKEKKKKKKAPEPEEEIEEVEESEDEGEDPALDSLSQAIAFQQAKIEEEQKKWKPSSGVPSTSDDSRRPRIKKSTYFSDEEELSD
# method: Kd (EC50 corrected by depletion factor)
experimental endpoint: pKd
Please report pKd as the negative decimal logarithm of the molar concentration, giving only the number.

Ask: Look up pKd for this sequence: UAUUUAU
Result: 5.46

* * *

# target under test: MRPL21 (UniProt Q7Z2W9)
# method: Kd (EC50 corrected by depletion factor)
experimental endpoint: Kd (nM)
Write it as a number; the unit nM goes unstated.

Ask: Look up Kd for this sequence: CUGUCCU
Result: 57.2

* * *

# target under test: GPATCH11 (UniProt Q8N954)
# Sequence (Q8N954 whole entry): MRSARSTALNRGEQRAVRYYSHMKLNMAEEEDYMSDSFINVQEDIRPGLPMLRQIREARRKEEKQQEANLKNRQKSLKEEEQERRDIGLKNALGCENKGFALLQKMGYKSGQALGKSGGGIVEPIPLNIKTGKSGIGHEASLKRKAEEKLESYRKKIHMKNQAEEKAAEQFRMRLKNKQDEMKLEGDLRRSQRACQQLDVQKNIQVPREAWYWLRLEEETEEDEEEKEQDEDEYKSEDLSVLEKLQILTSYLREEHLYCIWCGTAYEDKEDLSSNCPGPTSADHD
# method: EC50 of free RNA motif oligo competing protein binding to immobilised probe
experimental endpoint: EC50 (nM)
Write it as a number; the unit nM goes unstated.

Ask: Look up EC50 for this sequence: AAUAAA
Result: 122

* * *

# target under test: TSNAX (UniProt Q99598)
# Sequence: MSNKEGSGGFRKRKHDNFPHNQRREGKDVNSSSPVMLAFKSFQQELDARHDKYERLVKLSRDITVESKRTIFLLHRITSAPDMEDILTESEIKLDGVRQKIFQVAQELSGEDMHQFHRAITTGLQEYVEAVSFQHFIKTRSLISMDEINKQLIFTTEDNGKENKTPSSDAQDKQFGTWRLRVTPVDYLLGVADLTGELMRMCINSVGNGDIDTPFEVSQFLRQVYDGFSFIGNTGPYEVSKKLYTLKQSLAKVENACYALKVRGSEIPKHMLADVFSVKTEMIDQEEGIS
# method: Kd (EC50 corrected by depletion factor)
experimental endpoint: pKd
Please report pKd as the negative decimal logarithm of the molar concentration, giving only the number.

Ask: Checklist item: pKd tested on TSNAX (UniProt Q99598), entry AAUAAA , value?
Result: 8.22
